The measurements presented in this section are drawn from paper PMC4114983.

- measurement_target: diketoreductase (DKR) (Acinetobacter baylyi, UniProt B1P3E1, W222F)
- Construct: full-length in pET22b(+), E. coli BL21(DE3); DEAE and Sephadex G-100 purified; homodimer, 283 residues per subunit
- protocol_details: intrinsic Trp fluorescence quenching, quadratic fit
measurement_name: Kd (µM)
Give the value, in units of µM, as a plain number.

Requested field: Kd. Item: O=C(CCl)c1ccccc1 [2-chloro-1-phenylethanone] 484

----------
- measurement_target: WT-DKR; diketoreductase (DKR) (Acinetobacter baylyi)
- Construct: full-length in pET22b(+), E. coli BL21(DE3); DEAE and Sephadex G-100 purified; homodimer, 283 residues per subunit
- Sequence (B1P3E1 entry or part of it W222L): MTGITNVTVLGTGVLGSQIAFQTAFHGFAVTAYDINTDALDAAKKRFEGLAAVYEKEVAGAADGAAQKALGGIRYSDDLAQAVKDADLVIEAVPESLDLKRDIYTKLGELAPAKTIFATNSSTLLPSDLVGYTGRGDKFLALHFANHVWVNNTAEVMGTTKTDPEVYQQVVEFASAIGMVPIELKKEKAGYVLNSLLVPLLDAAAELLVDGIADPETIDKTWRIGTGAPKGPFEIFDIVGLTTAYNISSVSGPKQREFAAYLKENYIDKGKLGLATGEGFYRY
- protocol_details: intrinsic Trp fluorescence quenching, quadratic fit
- Type: binding
measurement_name: Kd (µM)
Respond with the bare value in µM.

Returns the measured Kd for the input compound. Input: O=C(CCl)c1ccccc1 458

----------
- measurement_target: diketoreductase (DKR) (Acinetobacter baylyi, UniProt B1P3E1, W222Y)
- Construct: full-length in pET22b(+), E. coli BL21(DE3); DEAE and Sephadex G-100 purified; homodimer, 283 residues per subunit
- protocol_details: intrinsic Trp fluorescence quenching, quadratic fit
measurement_name: Kd (µM)
Value expressed in µM; do not type the unit.

// returns reported Kd for input O=C(CCl)c1ccccc1 [2-chloro-1-phenylethanone] 455

----------
- measurement_target: diketoreductase (DKR) (Acinetobacter baylyi, UniProt B1P3E1, W222V)
- Construct: full-length in pET22b(+), E. coli BL21(DE3); DEAE and Sephadex G-100 purified; homodimer, 283 residues per subunit
- protocol_details: intrinsic Trp fluorescence quenching, quadratic fit
measurement_name: Kd (µM)
Expressed in µM, but write only the number.

# query: Kd of entry O=C(CCl)c1ccccc1 507
